tested on: M14; assay: NCI tumour cell line growth inhibition, 48 h
Calls of active or inactive are those of the source. No stated cut-off is given here; in the data, active = GI50 up to about 1.1 µM and inactive = higher.

[
  {
    "molecule": "COc1ccc(-c2nc(SCC(=O)NNC(=S)Nc3ccccc3)[nH]c2-c2ccc(OC)cc2)cc1",
    "GI50": "17.7 µM (inactive)"
  },
  {
    "molecule": "CSC(=S)N(C)c1nc(N(C)C)s[s+]1",
    "GI50": "> 100 µM (inactive)"
  },
  {
    "molecule": "CCOC(=O)CCC(NC(=O)c1ccc(OCc2nc3cc(C(F)(F)F)ccc3nc2-c2ccccc2)cc1)C(=O)OCC (centres undefined)",
    "GI50": "81.7 µM (inactive)"
  },
  {
    "molecule": "O=C(O)c1nc2cc(C(F)(F)F)ccc2nc1Nc1ccc(F)cc1",
    "GI50": "27 µM (inactive)"
  }
]

---

test system: U-251; experiment: NCI tumour cell line growth inhibition, 48 h
Counter-ions that a name gives are not always drawn. The source made the active and inactive calls. Rule as the data show it: active = GI50 up to about 1.1 µM and inactive = higher.

[
  {
    "compound": "COC(=O)C1C(OC(=O)C(Cl)(c2ccccc2)c2ccccc2)CC2CCC1N2C (stereo not given)",
    "GI50": "> 100 µM (inactive)"
  },
  {
    "compound": "Cc1ccc(NCC(=O)N2CC(=O)Nc3ccccc32)cc1",
    "GI50": "> 100 µM (inactive)"
  },
  {
    "compound": "C/C(=N/NC(=S)N1CCCCC1)c1cccc(/C(C)=N\\NC(=S)N2CCCCC2)n1",
    "GI50": "2.04 µM (inactive)"
  },
  {
    "compound": "CC(OC(C)(C)C)[C@H](NC(=O)OCc1ccccc1)C(=O)NC(OCc1ccccc1)[C@H]1COC(C)(C)O1 (stereo not given in full)",
    "GI50": "> 10 µM (inactive)"
  },
  {
    "compound": "COc1c(O)c2c(c3cc(C(=O)N4CCc5c4c(O)c(OC)c4[nH]c(C(=O)N6CC7CC78C6=CC(=O)c6[nH]cc(C)c68)cc54)[nH]c13)CCN2C(N)=O (stereo not given)",
    "GI50": "0.000191 µM (active)"
  },
  {
    "compound": "CCC(=O)N(O)C(C)(C)C",
    "GI50": "> 100 µM (inactive)"
  },
  {
    "compound": "CC[N+]1(C)CCC(O)(c2ccc(C)cc2)C(C(=O)c2ccc(C)cc2)C1 (stereo not given)",
    "GI50": "> 100 µM (inactive)"
  },
  {
    "compound": "CC1(C)C(=O)/C=C\\C(=O)C(C)(C)C2=CC=C(O2)C(C)(C)C(=O)/C=C\\C(=O)C(C)(C)C2=CC=C1O2",
    "GI50": "> 100 µM (inactive)"
  },
  {
    "compound": "[N-]=[N+]=Nc1c([N+](=O)[O-])c(=O)n2c3c(cccc13)CCC2",
    "GI50": "17.5 µM (inactive)"
  },
  {
    "compound": "O=C1/C(=C/c2ccc(C(=O)O)cc2)CNC/C1=C\\c1ccc(C(=O)O)cc1",
    "GI50": "> 100 µM (inactive)"
  },
  {
    "compound": "O=C1[C@@H]2[C@@H](c3ccccc3)[C@]2(Cl)C(=O)[C@H]2[C@H](c3ccccc3)[C@@]12Cl",
    "GI50": "> 100 µM (inactive)"
  },
  {
    "compound": "Oc1ccc([Te]CCNCC[Te]c2ccc(O)cc2)cc1",
    "GI50": "6.22 µM (inactive)"
  },
  {
    "compound": "O=C(Nc1nc(C23CC4CC(CC(C4)C2)C3)cs1)c1cc2c(ccc3ccccc32)oc1=O",
    "GI50": "> 100 µM (inactive)"
  },
  {
    "compound": "N=c1ccn2c(n1)O[C@H]1[C@H](O)[C@@H](CO)O[C@H]12 [ANCITABINE HYDROCHLORIDE]",
    "GI50": "15.1 µM (inactive)"
  },
  {
    "compound": "CN1CCC2(CC1)/C(=N/C1CCCCC1)NC(=O)N2c1ccccc1",
    "GI50": "> 100 µM (inactive)"
  }
]
